Where do these numbers come from? They come from patent US20110086806A1.

Target: T1, recombinant human IL-23R/Fc chimera (R&D Systems) (human, UniProt Q5VWK5 24-355)
T1 construct: Bought; also called rhIL23RFc
T1 sequence (looked up): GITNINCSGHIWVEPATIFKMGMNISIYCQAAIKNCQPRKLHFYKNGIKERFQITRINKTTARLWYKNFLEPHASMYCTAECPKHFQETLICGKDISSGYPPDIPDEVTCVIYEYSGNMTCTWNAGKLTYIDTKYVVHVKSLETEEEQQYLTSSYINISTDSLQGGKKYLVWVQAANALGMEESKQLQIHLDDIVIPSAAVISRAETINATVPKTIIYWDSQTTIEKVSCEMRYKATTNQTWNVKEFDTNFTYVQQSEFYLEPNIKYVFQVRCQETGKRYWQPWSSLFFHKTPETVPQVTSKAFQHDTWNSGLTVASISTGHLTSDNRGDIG
Test: SPR
pKd: −log10 of the molar value.
Label met for high-side pKd (at or above 7) and not met for low-side pKd (below it).

**Query** Record 056-45.F7F ATRIMER complex (designed binder, Homotrimer of this chain (ATRIMER complex)., not shown: A possible extra N-terminal Ser from the ompA junction is left out) EPPTQKPKKIVNAKKDVVNTKMFEELKSRLDTLAQEVALLKEQQALQTVCLKGTKVHMKCFLAFTQTKTFHEASEDCISRGGTLSTPQTGSENDALYEYLRQSVGNEAEIWLGLNGSATTDTWVDMTGARIAYKNWETEITAQPDGGFGYFGENCAVLSGAANGKWFDKRCRDQLPYICQFGIV ; criterion: pKd no lower than 7. Met?
**Result** met

**Query** Record 101-54-4B6 ATRIMER complex (designed binder) EPPTQKPKKIVNAKKDVVNTKMFEELKSRLDTLAQEVALLKEQQALQTVCLKGTKVHMKCFLAFTQTKTFHEASEDCISRGGTLSTPQTGSENDALYEYLRQSVGNEAEIWLGLNGSALTNTWVDMTGARIAYKNWEPPGPHHPMGGFGVFGENCAVLSGAANGKWFDKRCRDQLPYICQFGIV ; criterion: pKd no lower than 7. Met?
**Result** met

**Query** Record 056-53.H7B ATRIMER complex (designed binder, non-covalent homotrimer of the one chain given, not shown: Also the single Ser the vector leaves after the ompA signal) EPPTQKPKKIVNAKKDVVNTKMFEELKSRLDTLAQEVALLKEQQALQTVCLKGTKVHMKCFLAFTQTKTFHEASEDCISRGGTLSTPQTGSENDALYEYLRQSVGNEAEIWLGLNAGRMGLVWVDMTGARIAYKNWETEITAQPDGGWGVFGENCAVLSGAANGKWFDKRCRDQLPYICQFGIV ; criterion: pKd no lower than 7. Met?
**Result** met

**Query** Record 001-69.4F5 monomeric CTLD (designed binder, C-terminal tag not specified; not shown: Also the vector's N-terminal AGGGS after the pelB signal) ALQTVCLKGTKVHMKCFLAFTQTKTFHEASEDCISRGGTLSTPQTGSENDALYEYLRQSVGNEAEIWLGLNVLGWRREWVDMTGARIAYKNWETEITAQPDGGLVMPMENCAVLSGAANGKWFDKRCRDQLPYICQFGIV ; criterion: pKd no lower than 7. Met?
**Result** not met

**Query** Record 101-51-1A5 ATRIMER complex (designed binder, Forms a homotrimer through the tetranectin coiled coil; one protomer is given., not shown: C-terminal tag: His/Myc (pANA4) or HA-StrepII (pANA10)) EPPTQKPKKIVNAKKDVVNTKMFEELKSRLDTLAQEVALLKEQQALQTVCLKGTKVHMKCFLAFTQTKTFHEASEDCISRGGTLSTPQTGSENDALYEYLRQSVGNEAEIWLGLNGSALTNTWVDMTGARIAYKNWENGHEPQPRGGFGYFGENCAVLSGAANGKWFDKRCRDQLPYICQFGIV ; criterion: pKd no lower than 7. Met?
**Result** met
